Just for reference, patent US20060111305A1 is where these values come from.

Procedure details: Rat plasma metabolite profiles after single oral 5 mg/kg [14C]DCDQ
Type: in vivo, Sprague-Dawley rats
Conditions: male, 8 hr, mean n = 3
Counter-ions that a name gives are not always drawn.
Value type: Chromatographic distribution of radioactivity in rat plasma (%)

Field: example entries. Status: answers known.
{"columns": ["Compound", "Reading"],
 "data": [
  ["O=S(=O)(O)OC1CC[C@@H]2c3cccc4c3N(CCNC4)CC12 (stereo partly drawn) [Metabolite M13, 17-hydroxy DCDQ sulfate]", 1.4],
  ["OC1CN2C[C@@H]3CCC[C@@H]3c3cccc(c32)CN1 (stereo partly drawn) [Metabolite M1, hydroxy DCDQ]", 8.9],
  ["O=C1CC[C@@H]2c3cccc4c3N(CCNC4)C[C@H]12 [Metabolite M7, 17-keto DCDQ]", 12],
  ["CC(=O)N1Cc2cccc3c2N(C[C@@H]2CCC[C@H]32)C(O)C1 (stereo partly drawn) [Metabolite M11, acetylated hydroxy DCDQ]", 3.6],
  ["c1cc2c3c(c1)[C@H]1CCC[C@H]1CN3CCNC2 [DCDQ, reference compound]", 13]
]}

(I) OC1CNCc2cccc3c2N1C[C@@H]1CCC[C@H]31 (stereo partly drawn) [Metabolite M10, hydroxy DCDQ]
(II) OC1[C@@H]2CCC[C@@H]2c2cccc3c2N1CCNC3 (stereo partly drawn) [Metabolite M2, hydroxy DCDQ]
Could you point out whether the larger Chromatographic distribution of radioactivity in rat plasma belongs to I or to II ? Answer = label. II
(II: 4.3%, I: 3.0%)

* * *

Procedure details: Dog plasma metabolite profiles after single 15 mg/kg oral capsule of [14C]DCDQ
Type: in vivo, beagle dogs
Conditions: 4 hr, dog 2
Value type: Chromatographic distribution of radioactivity in dog plasma (%)

{"columns": ["Compound", "Measurement units", "Reading"],
 "data": [
  ["OC1[C@@H]2CCC[C@@H]2c2cccc3c2N1CCNC3 (stereo partly drawn) [Metabolite M2, hydroxy DCDQ]", "%", 12],
  ["[O-][N+]12CCN=Cc3cccc(c31)[C@H]1CCC[C@H]1C2 (stereo partly drawn) [Metabolite M5, DCDQ imine N-oxide]", "%", 5.3],
  ["c1cc2c3c(c1)[C@H]1CCC[C@H]1CN3CCNC2 [DCDQ, reference compound]", "%", 21]
]}

(I) O=C(O)[C@H]1O[C@@H](OC(=O)N2CCN3C[C@@H]4CCC[C@@H]4c4cccc(c43)C2)[C@H](O)[C@@H](O)[C@@H]1O [Metabolite M6, carbamoyl glucuronide of DCDQ]
(II) OC1CN2C[C@@H]3CCC[C@@H]3c3cccc(c32)CN1 (stereo partly drawn) [Metabolite M1, hydroxy DCDQ]
(III) O=C1CC[C@@H]2c3cccc4c3N(CCNC4)C[C@H]12 [Metabolite M7, 17-keto DCDQ]
Form: Sort by [Chromatographic distribution of radioactivity in dog plasma] Order [ ascending ] List labels; respect the requested ordering. II, III, I
(II: 4.9%, III: 7.8%, I: 13%)

* * *

Procedure details: Concentrations of DCDQ and DCDQ carbamoyl glucuronide (M6) in human plasma, LC/SRM (Table 34)
Format: in vivo, healthy human subjects
Conditions: human, plasma, oral, 300 mg, plasma, 300 mg (fed), 12 hr, Mean ± S.D.; read-out: M6 concentration in plasma
Value type: concentration at 12 h (ng/mL)
Reply with just the number (in ng/mL).

Value of concentration at 12 h reported for the compound O=C(O)[C@H]1O[C@@H](OC(=O)N2CCN3C[C@@H]4CCC[C@@H]4c4cccc(c43)C2)[C@H](O)[C@@H](O)[C@@H]1O [Metabolite M6, carbamoyl glucuronide of DCDQ] is 286

* * *

Procedure details: Concentrations of DCDQ and DCDQ carbamoyl glucuronide (M6) in human plasma, LC/SRM (Table 34)
Type: in vivo, healthy human subjects
Conditions: human, plasma, oral, 50 mg, plasma, 50 mg (fasted), 12 hr, Mean ± S.D.; read-out: M6 concentration in plasma
Protocol: Drug administration and specimen collection were performed in a randomized, double-blinded, placebo-controlled, ascending single dose study of the safety, tolerability, pharmacokinetics, and pharmacodynamics of DCDQ administered orally to healthy subjects and subjects with schizophrenia and schizoaffective disorder. […] LC/MS System 3 was used for semi-quantitative analysis of metabolite M6 (DCDQ carbamoyl glucuronide) in plasma and urine samples. […]
Value type: concentration at 12 h (ng/mL)
Reply with just the number (in ng/mL).

Value of concentration at 12 h reported for the compound O=C(O)[C@H]1O[C@@H](OC(=O)N2CCN3C[C@@H]4CCC[C@@H]4c4cccc(c43)C2)[C@H](O)[C@@H](O)[C@@H]1O [Metabolite M6, carbamoyl glucuronide of DCDQ] is 12.4

* * *

Procedure details: Dog plasma metabolite profiles after single 15 mg/kg oral capsule of [14C]DCDQ
Type: in vivo, beagle dogs
Conditions: male, beagle, dog, plasma, oral, 15 mg/kg, 24 hr, dog 2; read-out: Estimated plasma concentration in dogs
Value type: concentration at 24 h (ng/mL)

{"columns": ["Compound", "concentration at 24 h / ng/mL"],
 "data": [
  ["OC1[C@@H]2CCC[C@@H]2c2cccc3c2N1CCNC3 (stereo partly shown) [Metabolite M2, hydroxy DCDQ]", 55.3]
]}

(1) O=C(O)[C@H]1O[C@@H](OC(=O)N2CCN3C[C@@H]4CCC[C@@H]4c4cccc(c43)C2)[C@H](O)[C@@H](O)[C@@H]1O [Metabolite M6, carbamoyl glucuronide of DCDQ]
(2) OC1CN2C[C@@H]3CCC[C@@H]3c3cccc(c32)CN1 (stereo partly shown) [Metabolite M1, hydroxy DCDQ]
Between 1 and 2 , which one has the lower reported concentration at 24 h value? Answer = label. 2

* * *

Procedure details: Metabolites of DCDQ generated by liver microsomes and hepatocytes, LC/MS characterization (Table 6)
Format: in vitro ADME
Conditions: MM mouse, RM rat, DM dog, HM human liver microsomes; HH human hepatocytes
Value type: Source

{"columns": ["Compound", "Source"],
 "data": [
  ["O=C(O)[C@H]1O[C@@H](OC(=O)N2CCN3C[C@@H]4CCC[C@@H]4c4cccc(c43)C2)[C@H](O)[C@@H](O)[C@@H]1O [Metabolite M6, carbamoyl glucuronide of DCDQ]", "DM, HM, HH"],
  ["C1=NCCN2C[C@@H]3CCC[C@@H]3c3cccc1c32 [Metabolite P3, DCDQ imine]", "MM, RM, DM, HM, HH"],
  ["c1cc2c3c(c1)[C@H]1CCC[C@H]1CN3CCNC2 [DCDQ, reference compound]", "MM, RM, DM, HM, HH"],
  ["OC1[C@@H]2CCC[C@@H]2c2cccc3c2N1CCNC3 (stereo partly drawn) [Metabolite M2, hydroxy DCDQ]", "MM, RM, DM, HM, HH"]
]}

Attention now shifts to the item below.
Value of Source reported for the compound [O-][N+]12CCN=Cc3cccc(c31)[C@H]1CCC[C@H]1C2 (stereo partly drawn) [Metabolite M5, DCDQ imine N-oxide] is DM, HM, HH

* * *

Procedure details: Metabolites of DCDQ identified in rats by LC/MS analysis (Table 18)
Assay type: in vivo, Sprague-Dawley rats
Conditions: P = plasma, U = urine, B = brain, F = feces
Description: An Agilent Model 1100 HPLC system (Agilent Technologies, Wilmington, Del.) including an autosampler and diode array UV detector was used for LC/MS analysis of plasma and urine samples. The UV detector was set to monitor 200 to 400 nm. For selected LC/MS analyses, radiochromatograms were acquired using a β-Ram model 3 radioactivity flow detector (IN/US Systems Inc., Tampa, Fla.) equipped with a solid scintillant flow cell. […]
Value type: Matrix

{"columns": ["Compound", "Matrix"],
 "data": [
  ["O=C1CC[C@@H]2c3cccc4c3N(CCNC4)C[C@H]12 [Metabolite M7, 17-keto DCDQ]", "P, U, B"],
  ["OC1[C@@H]2CCC[C@@H]2c2cccc3c2N1CCNC3 (some centres unmarked) [Metabolite M2, hydroxy DCDQ]", "P, U"],
  ["O=S(=O)(O)N1CCN2CC3=CCC=C3c3cccc(c32)C1 [Metabolite M14, di-dehydro DCDQ sulfamate]", "P, U"],
  ["OC1CN2C[C@@H]3CCC[C@@H]3c3cccc(c32)CN1 (some centres unmarked) [Metabolite M1, hydroxy DCDQ]", "P, U, B"]
]}

Attention now shifts to the item below.
Value of Matrix reported for the compound O=S(=O)(O)N1CCN2C[C@@H]3CCC[C@@H]3c3cccc(c32)C1 [Metabolite M12, DCDQ sulfamate] is P, U

* * *

Procedure details: Rat brain radioactivity content and metabolite profiles after single oral 5 mg/kg [14C]DCDQ
Assay type: in vivo, Sprague-Dawley rats
Conditions: both sexes, Sprague-Dawley, rat, brain, oral, 5 mg/kg; independent of time or sex, 2 to 8 hour post-dose; read-out: average brain-to-plasma DCDQ ratio
Value type: Kp

Value of Kp reported for the compound c1cc2c3c(c1)[C@H]1CCC[C@H]1CN3CCNC2 [DCDQ, reference compound] is 49.9 to 56.1
